- Study System: T1, human PD-1 protein (human, UniProt Q15116 25-167, limits assumed)
- T1 construct: also called human PD-1 antigen
- T1 sequence (Q15116 25-167 limits assumed): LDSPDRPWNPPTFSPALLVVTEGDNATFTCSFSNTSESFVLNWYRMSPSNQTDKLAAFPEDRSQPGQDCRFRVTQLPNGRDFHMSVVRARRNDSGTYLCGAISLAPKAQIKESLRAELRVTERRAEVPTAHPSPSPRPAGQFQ
- Assay Summary: SPR; ratio against the U299-WT parent
Assay Readout: Ratio (kd)
Respond using a number only.

# get_value(readout='Ratio (kd)', item= AHF16556 (antibody, V domains shown) VH: QVQLVQSGAEVKKPGASVKVSCKASGYTFTGYWMHWVRQAPGQGLEWIGMIHPNSDTTVYNWKFKNRVTMTRDTSISTAYMELSRLRSDDTAVYYCAGTDQEAWAAFWGQGTTVTVSS VL: DIVMTQTPLSLSVTPGQPASISCRSSQNIVRSQGDTYLEWYLQKPGQSPQLLIYKVSKRFSGVPDRFSGSGSGTDFTLKISRVEAEDVGVYYCFQGSHVPWTFGGGTKVEIK )
6.45

Ratio (kd) for AHF16568 (antibody, V domains shown) VH: QVQLVQSGAEVKKPGASVKVSCKASGYTFTGYWMHWVRQAPGQGLEWIGMIHPNSDTTIYNWKFKNRVTMTRDTSISTAYMELSRLRSDDTAVYYCAGTDQEAWMGFWGQGTTVTVSS VL: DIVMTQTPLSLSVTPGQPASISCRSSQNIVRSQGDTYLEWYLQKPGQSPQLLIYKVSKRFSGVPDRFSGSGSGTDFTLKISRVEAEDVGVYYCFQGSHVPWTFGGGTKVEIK ?
11.6

I would be grateful if you could share the reported Ratio (kd) for AHF16560 (antibody, V domains shown) VH: QVQLVQSGAEVKKPGASVKVSCKASGYTFTGYWMHWVRQAPGQGLEWIGMIHPNSDTTIYNEKFKNRVTMTRDTSISTAYMELSRLRSDDTAVYYCAGTDQEAWHGFWGQGTTVTVSS VL: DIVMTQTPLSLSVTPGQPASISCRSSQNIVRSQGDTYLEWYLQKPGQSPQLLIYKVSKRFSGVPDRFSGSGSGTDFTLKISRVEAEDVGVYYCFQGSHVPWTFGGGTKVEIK .
6.04
